- Test system: COLO 205 colon
- method-description: NCI-60 one-dose screen, 48 h (100 = growth as untreated, 0 = no growth, -100 = all killed)
- cond: 10 µM unless noted
About 83,000 compounds went through this panel and 20% of them were active in at least one assay; those are over-represented in the sample as a whole.
Returns: string. Value is True if measured growth is below 10%, and False if it is greater than or equal to it.

[
  {
    "compound": "COc1ccc(CNc2c3ccccc3nc3ccccc23)cc1",
    "system": "COLO 205 colon",
    "answer-label": "False"
  },
  {
    "compound": "COc1c(B(O)O)cccc1-c1cc(C)c2c(ccc3[nH]ncc32)n1",
    "system": "COLO 205 colon",
    "answer-label": "False"
  },
  {
    "compound": "CCCOC(=O)Nc1nc2ccc(SCC(C)C)cc2s1",
    "system": "COLO 205 colon",
    "answer-label": "False"
  }
]

### Prompt Consider "CCOCCNC1=C(Cl)C(=O)c2ccccc2C1=O" . Does its growth lie strictly below 10%?
### Response False

### Prompt Consider CC(=O)N1N=C(c2ccc(Nc3nc(Nc4ccccc4)nc(Nc4ccccc4)n3)cc2)CC1c1cccc([N+](=O)[O-])c1 (stereo not given) . Does its growth lie strictly below 10%?
### Response False

### Prompt Consider CC1=C([Se]CC(OC(=O)CC[Se]c2ccccc2)C(=O)NC(C)(C)C)C(=O)c2ccccc2C1=O (stereo not given) . Does its growth lie strictly below 10%?
### Response True

### Prompt Consider "CCCCCC(/C=N\NC(=S)N/N=C/C(=C/c1ccccc1)CCCCC)=C\c1ccccc1" . Does its growth lie strictly below 10%?
### Response False

### Prompt Consider O=CN1N=C(c2cccc(Nc3ccnc4cc(Cl)ccc34)c2)CC1c1ccccc1 (stereo not given) . Does its growth lie strictly below 10%?
### Response True

### Prompt Consider "Cc1cn(-c2cc(NC(=O)c3cccc(C#Cc4cccc5[nH]nc(N)c45)c3)cc(C(F)(F)F)c2)cn1" . Does its growth lie strictly below 10%?
### Response False

### Prompt Consider "NS(=O)(=O)c1ccccc1NC(=O)Nc1nc2ccccc2s1" . Does its growth lie strictly below 10%?
### Response False

====

- Test system: SK-MEL-28 melanoma
- method-description: NCI-60 one-dose screen, 48 h
- cond: 10 µM unless noted
Compounds without any hit were thinned out: in the full panel of roughly 83,000, 20% have a hit. The source made the active and inactive calls. The calls were made as follows: active = growth percent below 10; inactive = the rest.
Please state which outcome applies, choosing from class 1 = active, class 0 = inactive

Examples with answers:
[
  {
    "molecule": "CCOC(=O)c1c(NC(=O)c2cccc(C(F)(F)F)c2)sc2c(CN(C)C)c(O)ccc12",
    "system": "SK-MEL-28 melanoma",
    "answer-label": "class 0"
  },
  {
    "molecule": "Nc1c(C(=O)Nc2ccccc2C(F)(F)F)sc2nc3c(cc12)CCC3",
    "system": "SK-MEL-28 melanoma",
    "answer-label": "class 0"
  },
  {
    "molecule": "Ic1ccc(OCCCCn2ccnc2)cc1",
    "system": "SK-MEL-28 melanoma",
    "answer-label": "class 0"
  },
  {
    "molecule": "CCOC(=O)NC(C)C",
    "system": "SK-MEL-28 melanoma",
    "answer-label": "class 0"
  },
  {
    "molecule": "COCCNC(=O)Nc1ccc2nc(-c3cccs3)c(-c3cccs3)nc2c1",
    "system": "SK-MEL-28 melanoma",
    "answer-label": "class 0"
  },
  {
    "molecule": "NC(=O)c1c(NC(=O)c2ccc3ccccc3c2)sc2c1CCC(=O)C2",
    "system": "SK-MEL-28 melanoma",
    "answer-label": "class 0"
  }
]

### Prompt Assay result, entry "COc1c(B(O)O)cccc1-c1cc(C)c2c(ccc3[nH]ncc32)n1" — outcome?
### Response class 0

### Prompt Assay result, entry "S=c1sc2c(Cl)nc(-c3cccnc3)nc2n1-c1ccccc1" — outcome?
### Response class 1

### Prompt Assay result, entry "N#Cc1nc(-c2ccc(F)cc2)oc1S(=O)(=O)N1CCOCC1" — outcome?
### Response class 0

### Prompt Assay result, entry "C=C(C)[C@@H]1CC[C@]2(CO)CC[C@]3(C)[C@H](CC[C@@H]4[C@@]5(C)CC[C@H](NCO)C(C)(C)[C@@H]5CC[C@]43C)[C@@H]12" — outcome?
### Response class 1

### Prompt Assay result, entry COc1ccc(C(O)c2cc3c(N)c(C(=O)Nc4cccc(Br)c4)sc3nc2C)cc1 (stereo not given) — outcome?
### Response class 0

====

- System: SK-MEL-2 melanoma
- method-description: NCI-60 one-dose screen, 48 h (100 = growth as untreated, 0 = no growth, -100 = all killed)
- cond: 10 µM unless noted
About 83,000 compounds went through this panel and 20% of them were active in at least one assay; those are over-represented in the sample as a whole.
quantity-measured: growth (%)
Quick reminder: number only, in %, skip the unit.

Examples from the recorded data:
[
  {
    "compound": "Cc1ccc(NC(=O)Cn2cc(CN3CCN(c4ccnc5cc(Cl)ccc45)CC3)nn2)cc1",
    "growth / %": 114
  },
  {
    "compound": "Cn1cc(-c2csc(-c3c[nH]c4ccccc34)n2)c2cnccc21",
    "growth / %": 96.2
  },
  {
    "compound": "CCOC(=O)c1nn(-c2ccc(S(N)(=O)=O)cc2)c2nc(C)cc(=O)n12",
    "growth / %": 109
  },
  {
    "compound": "CNc1nnc2n(-c3ccccc3)c(=O)c3cnn(-c4ccccc4)c3n12",
    "growth / %": 82
  }
]

### Prompt Form: Entry = "Nc1n[nH]c2cccc(C#Cc3cccc(NC(=O)c4cc(F)cc(C(F)(F)F)c4)c3)c12" | System = SK-MEL-2 melanoma | growth = ____
### Response 63.2

### Prompt Form: Entry = "COc1ccc(-c2nc3cc(C(=O)NCc4ccccc4)ccc3n2C2CCCCC2)cc1" | System = SK-MEL-2 melanoma | growth = ____
### Response 91.3

### Prompt Form: Entry = "C/C(Cc1ccc(Cl)cc1)=C(\c1ccc(O)cc1)c1ccc(Cl)cc1" | System = SK-MEL-2 melanoma | growth = ____
### Response 90.9

### Prompt Form: Entry = "CCCC/C=C/[C@@H]1C[C@H]1CCO" | System = SK-MEL-2 melanoma | growth = ____
### Response 98.7

### Prompt Form: Entry = "CCOc1nc(-c2ccccc2)cc2c(O)c(C(=O)N/N=C/c3ccccc3)[nH]c(=O)c12" | System = SK-MEL-2 melanoma | growth = ____
### Response 36.5

### Prompt Form: Entry = "O=C(Nc1nc(-c2ccc(Cl)cc2)nc2c1sc(=S)n2-c1ccccc1)C(F)(F)F" | System = SK-MEL-2 melanoma | growth = ____
### Response 43.3

### Prompt Form: Entry = "Cc1c2cnccc2c(C)c2c1c1cc(C#N)ccc1n2C" | System = SK-MEL-2 melanoma | growth = ____
### Response -75.4

### Prompt Form: Entry = COc1cc(C2c3cc(OC(C)=O)c(OC)cc3CC3C(=O)OCC32)ccc1OC(C)=O (stereo not given) | System = SK-MEL-2 melanoma | growth = ____
### Response 132

### Prompt Form: Entry = "COc1cc(OCc2cccc(Br)c2C)cc(OC)c1C=O" | System = SK-MEL-2 melanoma | growth = ____
### Response 88

### Prompt Form: Entry = "Cc1ccc(-c2nc(N3CCCNCC3)c3oc(-c4ccc(C)cc4)nc3n2)cc1" | System = SK-MEL-2 melanoma | growth = ____
### Response 105

### Prompt Form: Entry = "OB1OCc2cc(/C=C/c3cccc(C(F)(F)F)c3)ccc21" | System = SK-MEL-2 melanoma | growth = ____
### Response 60.2

### Prompt Form: Entry = "CCOC(=O)c1cc(C(=O)c2cc(OC)c(OC)c(OC)c2)n2ncccc12" | System = SK-MEL-2 melanoma | growth = ____
### Response 57.7

### Prompt Form: Entry = CCOC(=O)C1=C(c2ccccc2)N=C2SC=C(c3ccc(Cl)cc3)N2C1c1ccc(Br)cc1 (stereo not given) | System = SK-MEL-2 melanoma | growth = ____
### Response 96.4

### Prompt Form: Entry = "CS(=O)(=O)Nc1cncc(-c2ccc3ncnc(Nc4cncc(Cl)c4)c3c2)c1" | System = SK-MEL-2 melanoma | growth = ____
### Response 67.6

====

- System: OVCAR-5 ovarian
- method-description: NCI-60 one-dose screen, 48 h (100 = growth as untreated, 0 = no growth, -100 = all killed)
- cond: 10 µM unless noted
The panel holds about 83,000 compounds, 20% with a hit somewhere; the sample as a whole holds those more often.
Each record here notes measured growth.
Quick reminder: number only, in %, skip the unit.

Examples from the recorded data:
[
  {
    "compound": "COc1cc2c(c(OC)c1OC)CCC(c1cccc(NC(=O)c3ccc(Br)cc3)c1)O2 (centres undefined)",
    "val": 93.3
  },
  {
    "compound": "O=C(Cn1cc(CSc2nc3ccccc3o2)nn1)Nc1ccc(F)cc1F",
    "val": 110
  },
  {
    "compound": "COC(=O)Nc1nc2ccc(S(=O)c3ccccc3)cc2[nH]1 (centres undefined)",
    "val": 92.8
  },
  {
    "compound": "O=C(CSC(=S)n1cnnc1)NC(=O)c1ccccc1",
    "val": 100
  },
  {
    "compound": "O=C(/C=C/c1cccc(Cl)c1)c1cccc(OCCCOc2cccc(C(=O)/C=C/c3cccc(Cl)c3)c2)c1",
    "val": 113
  },
  {
    "compound": "C=C1C(=O)O[C@H]2[C@H]1CC/C(Cn1cc(-c3ccccc3)nn1)=C\\CC[C@@]1(C)O[C@@H]21",
    "val": -2.95
  },
  {
    "compound": "CNC(=O)c1[nH]cc(-c2ccc(OC)cc2)c1-c1cc(OC)c2c(c1OC)OCO2",
    "val": 95.8
  },
  {
    "compound": "Cc1nc2sc(C(=O)Nc3ccc(Br)cc3)c(N)c2cc1C(O)c1ccccc1 (centres undefined)",
    "val": 92
  }
]

Pending compound:
### Prompt Bench note: what growth did "O=C1c2ccc3c4c5ccc(c24)C(=O)N1CCCOCCCCOCCCNCc1ccc(cc1)CNCCCOCCCCOCCCN(C3=O)C5=O" show?
### Response -63.3
